Examples of molecules with documented IC90 follow.
test system: HIV-1 isolate 4736_4; experiment: microbe, parasite or virus in culture; details: Human immunodeficiency virus 1, PBMC
Property label: IC90 (nM)

Smiles string: COc1cc2c(cc1Cc1cccc(Cl)c1F)c(=O)c(C(=O)O)cn2[C@H](CO)C(C)C
Readout number: 81.9
--
Smiles string: Cc1nnc(C(=O)NC(C)(C)c2nc(C(=O)NCc3ccc(F)cc3)c(O)c(=O)n2C)o1
Readout number: 74.5
--
Smiles string: Cc1cn([C@H]2C[C@H](N=[N+]=[N-])[C@@H](CO)O2)c(=O)[nH]c1=O
Readout number: 2.57
--
Smiles string: NCC(=O)Nc1ccc(-n2nc(C(F)(F)F)cc2-c2ccc3c(ccc4ccccc43)c2)cc1
Readout number: 762
